# TEST DESCRIPTION: proliferation blockers of H69AR lung cancer cells, primary screen, cell-based, human, 86K library (AID 598);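 further: multidrug resistant small cell line overexpressing MRP-1 efflux transporter; 100% = mean luminescence of untreated control wells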
# STATED CONDITIONS: H69AR lung tumor viability, ATP luminescence, 72 h; at 10 µM; stronger effect = lower value
About 5,100 (6%) of roughly 85,000 compounds were called active. Many of the other results were omitted from the sample, so actives are more common in it than they were.
MEASURE: viability (%)
Hi! Could you send only the number? It should be in %, unit omitted.

Consider the following illustrative entries.
Give the reported viability for this molecule. CC(C)C[C@@H](N)c1nnc(SCC(=O)c2ccc(Cl)cc2)o1 86.9

Give the reported viability for this molecule. CCn1nccc1C(=O)Nc1ccc(Cl)c(Cl)c1 77

Give the reported viability for this molecule. CC(N=Cc1nc(-c2ccccc2)oc1O)c1ccccc1 (centres undefined) 94.3

Give the reported viability for this molecule. O=C(Nc1ccc2oc(-c3ccc4ccccc4c3)nc2c1)c1cccs1 2.65

New cases:
Give the reported viability for this molecule. CN(C)S(=O)(=O)c1ccc(N2CCCC2)c(C(=O)NCc2ccccc2)c1 83.6

Give the reported viability for this molecule. COc1ccc(C)cc1NC(=O)CCS(=O)(=O)c1cccc2nonc12 89

Give the reported viability for this molecule. COc1ccc(C(C)=O)cc1CN1C(=O)NC2(CCCCC2C)C1=O (centres undefined) 93.7

Give the reported viability for this molecule. Cc1nc(-c2ccc(NC(=O)c3cccs3)cc2)cs1 70.7
